Test system: Klebsiella aerogenes
assay-info: Compound was evaluated for in vitro antibacterial activity against Klebsiella aerogenes 1522 E strain by agar dilution method
Assay type: functional
Below: a set of entries, each annotated with reported MIC.
measured-parameter: MIC

{"compound": "C[C@H]1C([C@@H](O)C2CC2)=C(C(=O)[O-])N2C(=O)[C@H]([C@@H](C)O)C12.[Na+] (some centres not stated)", "result": "0.781 µg/mL"}
{"compound": "CC(C)[C@@H](O)C1=C(C(=O)[O-])N2C(=O)[C@H]([C@@H](C)O)C2[C@H]1C.[Na+] (some centres not stated)", "result": "0.391 µg/mL"}
{"compound": "CC[C@@H](O)C1=C(C(=O)[O-])N2C(=O)[C@H]([C@@H](C)O)C2[C@H]1C.[Na+] (some centres not stated)", "result": "0.391 µg/mL"}
{"compound": "C[C@H]1C([C@H](O)C2CCCC2)=C(C(=O)[O-])N2C(=O)[C@H]([C@@H](C)O)C12.[Na+] (some centres not stated)", "result": "1.56 µg/mL"}
{"compound": "C[C@H]1C([C@H](O)C2CC2)=C(C(=O)[O-])N2C(=O)[C@H]([C@@H](C)O)C12.[Na+] (some centres not stated)", "result": "0.195 µg/mL"}
{"compound": "CC(C)[C@H](O)C1=C(C(=O)[O-])N2C(=O)[C@H]([C@@H](C)O)C2[C@H]1C.[Na+] (some centres not stated)", "result": "12.5 µg/mL"}
{"compound": "C[C@@H](O)[C@H]1C(=O)N2C(C(=O)O)=C(S[C@@H]3CN[C@H](C(=O)N(C)C)C3)[C@H](C)[C@H]12", "result": "0.049 µg/mL"}
